- TARGET SYSTEM: T1, SARS-CoV-2 Receptor Binding Domain (RBD) protein (SARS-CoV-2, UniProt P0DTC2 319-541)
- T1 construct: also called Sars-Cov-2 (COV2)
- TEST: SPR (Carterra LSA); scFv captured by anti-V5, RBD as analyte
QUANTITY NAME: koff
Just the number plus its unit, please.

BINDER: COVID19_P13_B05 (scFv, V domains shown) VH: QVQLVQSGAEVKKPGSSVKVSCKASGYTFTSYDINWVRQAPGQGLEWMGWINPNSGGTNYAQKFQGRVTITADESTSTAYMELSSLRSEDTAVYYCARDTFFGGMDVWGQGTLVTVSS VL: SSYVLTQPPSVSVAPGKTARITCGGNNIGSKSVHWYQQKPGQAPVLVIYYDSDRPSGIPERFSGSNSGNTATLTISRVEAGDEADYYCQVWDSSSYYVFGGGTKLTVLA
koff: 0.0037 s⁻¹

Read the next record carefully.
Q: Form field: reported koff of COVID19_P13_D01 (scFv, V domains shown) VH: QVQLVQSGAEVKKPGSSVKVSCKASGYTFSDFDINWVRQAPGQGLEWMGGIIPIFGTANYAQKFQGRVTITADESTSTAYMELSSLRSEDTAVYYCGMDTVMGGMTSWGQGTLVTVSS VL: SSYVLTQPPSVSVAPGKTARITCGGNNIGSKSVHWYQQKPGQAPVLVIYYDSDRPSGIPERFSGSNSGNTATLTISRVEAGDEADYYCQVWDSSHDYVFGGGTKLTVLA
Ans: 0.00035 s⁻¹
